Recorded log10 of IC50 for the following compounds
- system_name: Type-1 angiotensin II receptor B (Rattus norvegicus)
- Sequence (P29089 whole entry): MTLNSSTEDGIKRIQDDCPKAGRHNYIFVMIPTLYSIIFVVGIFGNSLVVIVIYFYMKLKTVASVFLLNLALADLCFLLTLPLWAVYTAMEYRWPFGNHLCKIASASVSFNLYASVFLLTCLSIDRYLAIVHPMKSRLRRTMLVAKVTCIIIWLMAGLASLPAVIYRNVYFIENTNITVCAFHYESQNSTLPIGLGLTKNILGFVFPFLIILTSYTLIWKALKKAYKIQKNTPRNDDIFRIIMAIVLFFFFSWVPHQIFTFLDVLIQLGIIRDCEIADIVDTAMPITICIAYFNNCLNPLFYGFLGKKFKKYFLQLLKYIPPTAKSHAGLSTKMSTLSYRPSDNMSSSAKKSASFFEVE
- assay_info: Inhibition of specific binding of [125I]angiotensin-II to angiotensin 1 receptor in rat lung membrane preparation
In plain terms, each number is the log10 of measured IC50 in nM.

1) CCCCc1nc2ccc(N3CCCCS3(=O)=O)cc2n1Cc1ccc(-c2ccccc2-c2nnn[nH]2)cc1 0.48

Tell me the measured log10 of IC50 of "CCCc1nc2c(C)cc(-c3cn4ccccc4n3)cc2n1Cc1ccc(-c2ccccc2-c2nnn[nH]2)cc1" , please.
0.48

Check "CCCCc1nc2ccc(N3CCCCC3=O)cc2n1Cc1ccc(-c2ccccc2-c2nnn[nH]2)cc1" too.
0.60

And then "CCCCc1nc2cc(N)ccc2n1Cc1ccc(-c2ccccc2C(=O)O)cc1" , what is it?
2.91

* * *

- system_name: Type-1 angiotensin II receptor B (Rattus norvegicus)
- assay_info: Inhibition of specific binding of [125I]angiotensin-II to angiotensin 1 receptor in rat lung membrane preparation
Response field class: string, computed from recorded IC50 by ranges Low = under 0.008 µM, Mid = from 0.008 µM up to 0.2 µM, High = 0.2 µM and over

As a guide, the following entries are already answered.
1. CCCc1nc2c(C)cc(-c3nc4ccccc4n3C)cc2n1Cc1ccc(-c2ccccc2C(=O)O)cc1 Low
2. CCCCc1nc2cc(NC(=O)NC3CCCCC3)ccc2n1Cc1ccc(-c2ccccc2C(=O)O)cc1 High
3. CCCc1nc2c(C)cc(-c3ccccn3)cc2n1Cc1ccc(-c2ccccc2-c2nnn[nH]2)cc1 Low
4. CCCCc1nc2ccc(N(C)C(=O)NC3CCCCC3)cc2n1Cc1ccc(-c2ccccc2C(=O)O)cc1 Mid

Please indicate the class for "CCCCc1nc2c(NC(=O)NC3CCCCC3)cccc2n1Cc1ccc(-c2ccccc2C(=O)O)cc1" based on its IC50.
High

"CCCCc1nc2ccc(N3CCCCC3)cc2n1Cc1ccc(-c2ccccc2C(=O)O)cc1" , same question.
Mid

Repeat with "CCCCc1nc2ccc(N3CCCCC3=O)cc2n1Cc1ccc(-c2ccccc2C(=O)O)cc1"
Mid

And the next one, "CCCCc1nc2ccc(NC(=O)N(C)C)cc2n1Cc1ccc(-c2ccccc2C(=O)O)cc1" ?
Mid

* * *

// values below are reported pIC50
- system_name: Type-1 angiotensin II receptor B (Rattus norvegicus, UniProt P29089)
- Sequence (P29089 whole entry): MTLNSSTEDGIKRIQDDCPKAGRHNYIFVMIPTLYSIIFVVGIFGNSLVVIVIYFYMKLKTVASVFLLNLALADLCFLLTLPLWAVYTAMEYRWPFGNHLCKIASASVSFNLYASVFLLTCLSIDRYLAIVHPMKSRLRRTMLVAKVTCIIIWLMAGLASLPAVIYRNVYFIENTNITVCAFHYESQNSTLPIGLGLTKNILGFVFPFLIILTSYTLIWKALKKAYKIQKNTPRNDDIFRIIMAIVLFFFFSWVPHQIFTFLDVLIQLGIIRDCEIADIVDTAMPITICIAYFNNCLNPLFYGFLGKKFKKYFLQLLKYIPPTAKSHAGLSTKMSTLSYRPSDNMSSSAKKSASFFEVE
- assay_info: Inhibition of specific binding of [125I]angiotensin-II to angiotensin 1 receptor in rat lung membrane preparation
Value format note: pIC50 is -log10 of concentration (mol/L); just state the number.

Some entries whose results are on file:
1. CCCCc1nc2ccc(NC(C)=O)cc2n1Cc1ccc(-c2ccccc2C(=O)O)cc1 6.74
2. CCCCc1nc2ccc(N3CCCCS3(=O)=O)cc2n1Cc1ccc(-c2ccccc2C(=O)O)cc1 7.47
3. CCCCc1nc2cccc(NC(C)=O)c2n1Cc1ccc(-c2ccccc2C(=O)O)cc1 5.74
4. CCCCc1nc(Cl)c(CO)n1Cc1ccc(-c2ccccc2C(=O)O)cc1 6.46
5. CCCCc1nc2cc(NC(C)=O)ccc2n1Cc1ccc(-c2ccccc2C(=O)O)cc1 6.34

For the molecule "CCCCCNc1ccc2nc(CCCC)n(Cc3ccc(-c4ccccc4C(=O)O)cc3)c2c1" , what pIC50 is on record?
6.41

Do the same for "CCCCc1nc2ccc(N)cc2n1Cc1ccc(-c2ccccc2C(=O)O)cc1" please
6.27

Quick one: "CCCc1nc2ccc(-c3nc4ccccc4n3C)cc2n1Cc1ccc(-c2ccccc2C(=O)O)cc1"
8.52

Continue with "CCCCc1nc2c(NC(C)=O)cccc2n1Cc1ccc(-c2ccccc2C(=O)O)cc1"
5.24

Entry to check: "CCCCc1nc2ccccc2n1Cc1ccc(-c2ccccc2C(=O)O)cc1"
6.40

* * *

- system_name: Type-1 angiotensin II receptor B (Rattus norvegicus)
- assay_info: Inhibition of specific binding of [125I]angiotensin-II to angiotensin 1 receptor in rat lung membrane preparation
pIC50: −log10 of the molar value.
# if value of pIC50 reaches 7, tag 1; if it stays below, tag 0

Before answering, review these 2 worked examples.
1. CCCCc1nc2ccc(N(C)C(=O)NC3CCCCC3)cc2n1Cc1ccc(-c2ccccc2-c2nn[nH]n2)cc1 1
2. CCCCc1nc2ccc(C)cc2n1Cc1ccc(-c2ccccc2C(=O)O)cc1 0

Now let's try a different one.
Does pIC50 meet or surpass 7 for "CCCc1nc2ccc(-c3nc4ccccc4o3)cc2n1Cc1ccc(-c2ccccc2-c2nn[nH]n2)cc1" ?
0

* * *

- system_name: Type-1 angiotensin II receptor B (Rattus norvegicus, UniProt P29089)
- Sequence (P29089 whole entry): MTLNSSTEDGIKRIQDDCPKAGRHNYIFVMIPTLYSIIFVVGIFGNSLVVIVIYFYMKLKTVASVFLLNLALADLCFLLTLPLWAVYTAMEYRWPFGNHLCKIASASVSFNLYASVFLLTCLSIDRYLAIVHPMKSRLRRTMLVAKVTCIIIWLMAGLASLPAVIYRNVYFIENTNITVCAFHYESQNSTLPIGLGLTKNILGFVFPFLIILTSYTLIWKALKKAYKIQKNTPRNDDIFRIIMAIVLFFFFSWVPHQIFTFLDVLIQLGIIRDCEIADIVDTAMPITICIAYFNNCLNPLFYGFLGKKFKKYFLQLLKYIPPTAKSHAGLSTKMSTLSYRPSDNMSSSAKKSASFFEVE
- assay_info: Inhibition of specific binding of [125I]angiotensin-II to angiotensin 1 receptor in rat lung membrane preparation
The threshold is 30 nM. Values of IC50 beneath it are tagged true; values meeting or exceeding it are tagged false.

Before answering, review these 3 worked examples.
1) CCCc1nc2ccc(-c3ccccn3)cc2n1Cc1ccc(-c2ccccc2-c2nnn[nH]2)cc1 true
2) CCCc1nc2ccc(-c3nc4ccccc4n3C)cc2n1Cc1ccc(-c2ccccc2-c2nn[nH]n2)cc1 true
3) CCCCc1nc2c(C)cccc2n1Cc1ccc(-c2ccccc2C(=O)O)cc1 false

is_below(IC50, 30 nM) for "CCCc1nc2c(C)cc(-c3nc4ccccc4n3C)cc2n1Cc1ccc(-c2ccccc2-c2nnn[nH]2)cc1" ?
true

// query: "CCCCc1nc2c(N)cccc2n1Cc1ccc(-c2ccccc2C(=O)O)cc1"
false

Next compound up: "CCCCc1nc2ccc(NC(=O)NC3CCCCC3)cc2n1Cc1ccc(-c2ccccc2C(=O)O)cc1"
true

Similarly, "CCCCc1nc2cccc(C)c2n1Cc1ccc(-c2ccccc2C(=O)O)cc1" ?
false

For "CCCCc1nc2ccc(N(C)S(=O)(=O)CCC)cc2n1Cc1ccc(-c2ccccc2C(=O)O)cc1" then?
false

Next up: "CCCCc1nc2cc(C)ccc2n1Cc1ccc(-c2ccccc2C(=O)O)cc1"
false

Same for "CCCCc1nc2cccc(NC(=O)NC3CCCCC3)c2n1Cc1ccc(-c2ccccc2C(=O)O)cc1"
false

Now this one: "CCCCc1nc2ccc(NC(=O)NC3CCCCC3)cc2n1Cc1ccc(-c2ccccc2-c2nn[nH]n2)cc1"
true
